For each of the compounds below, state its melting point.

stdin: Fill in the blank: the reported melting point of CN(C)CCC(Oc1cccc2c1OCO2)c1ccc(OCCCN2CCC(F)CC2)cc1.O=C(O)C(=O)O (stereo not drawn) [Compound 11t] is ____.
stdout: 134 to 136 °C

stdin: For CCN(CC)CCCOc1ccc(C(CCN(C)C)Oc2cccc3c2OCO3)cc1.O=C(O)C(=O)O (stereo not drawn) [Compound 11m] then?
stdout: 98 to 100 °C

stdin: For CC(C)N1CCN(CCCOc2cccc(C(CCN(C)C)Oc3cccc4c3OCO4)c2)CC1.O=C(O)C(=O)O (stereo not drawn) [Compound 11k] then?
stdout: 185 to 186 °C

stdin: For CN(C)CCC(Oc1cccc2c1OCO2)c1cccc(OCCCN2CCCC2)c1.O=C(O)C(=O)O (stereo not drawn) [Compound 11h] then?
stdout: 104 to 106 °C

stdin: For CN(C)CCC(Oc1cccc2c1OCO2)c1ccc(OCCCN2CCN(C)CC2)cc1.O=C(O)C(=O)O (stereo not drawn) [Compound 11d] then?
stdout: 155 to 156 °C

stdin: For CN(C)CCC(Oc1cccc2c1OCO2)c1ccc(OCCN2CCCCC2)cc1.O=C(O)C(=O)O (stereo not drawn) [Compound 11n] then?
stdout: 116 to 118 °C

stdin: For CN(C)CCC(Oc1cccc2c1OCO2)c1ccc(OCCCN2CCC(Cl)CC2)cc1.O=C(O)C(=O)O (stereo not drawn) [Compound 11u] then?
stdout: 145 to 146 °C

stdin: For CN(C)CCC(Oc1cccc2c1OCO2)c1ccc(OCCCN2CC3CCCC3C2)cc1.O=C(O)C(=O)O (stereo not drawn) [Compound 11g] then?
stdout: 110 to 112 °C

stdin: For CC1CC(C)CN(CCCOc2ccc(C(CCN(C)C)Oc3cccc4c3OCO4)cc2)C1.O=C(O)C(=O)O (stereo not drawn) [Compound 11s] then?
stdout: 140 to 142 °C

stdin: For CC1CCCCN1CCCOc1ccc(C(CCN(C)C)Oc2cccc3c2OCO3)cc1.O=C(O)C(=O)O (stereo not drawn) [Compound 11p] then?
stdout: 129 to 131 °C

stdin: For CC(C)N1CCN(CCCOc2ccc(C(CCN(C)C)Oc3cccc4c3OCO4)cc2)CC1.O=C(O)C(=O)O (stereo not drawn) [Compound 11f] then?
stdout: 160 to 162 °C

stdin: For CN(C)CCC(Oc1cccc2c1OCO2)c1ccc(OCCCN2CCCC2)cc1.O=C(O)C(=O)O (stereo not drawn) [Compound 11a] then?
stdout: 138 to 140 °C

stdin: For CC1CCN(CCCOc2ccc(C(CCN(C)C)Oc3cccc4c3OCO4)cc2)CC1.O=C(O)C(=O)O (stereo not drawn) [Compound 11r] then?
stdout: 126 to 128 °C

stdin: For CN(C)CCC(Oc1cccc2c1OCO2)c1ccc(OCCCN2CCOCC2)cc1.O=C(O)C(=O)O (stereo not drawn) [Compound 11c] then?
stdout: 169 to 170 °C

stdin: For CC1CCCN(CCCOc2ccc(C(CCN(C)C)Oc3cccc4c3OCO4)cc2)C1.O=C(O)C(=O)O (stereo not drawn) [Compound 11q] then?
stdout: 130 to 132 °C

----------
assay: Pharmacokinetic study in rats; assay type: in vivo; conditions: rat, plasma, 20 mg/kg po
resultType: AUC(0-t)

stdin: Fill in the blank: the reported AUC(0-t) of CN(C)CCC(Oc1cccc2c1OCO2)c1ccc(OCCCN2CCCCC2)cc1.O=C(O)C(=O)O (stereo not shown) [Compound 11b] is ____.
stdout: 942 ng·h/mL
